System: SNB-75 CNS
Labels: Y for active, N for inactive

| compound | system-tested | qualitative-label |
| --- | --- | --- |
| C=CCN1C(=O)/C(=c2\sc3n(c2=O)C2C(NN=3)N(CC)C(=O)N2CC)c2ccccc21 (centres undefined) | SNB-75 CNS | Y |
| CCCc1cc(=O)oc2c(C(=O)CC(C)C)c(O)c(CC=C(C)C)c(O)c12 | SNB-75 CNS | N |
| CCOP(=O)(CCP(=O)(OCC)OCC)OCC.C[CH2][Sn]([Cl])([Cl])[CH2]C | SNB-75 CNS | N |
| CCCCCCN(CCCCCC)CCCNc1nccc2ccccc12 | SNB-75 CNS | N |
| O=C(Nc1cccc(Cl)c1)Nc1cccc(Cl)c1 | SNB-75 CNS | N |
| N#Cc1ccc(Oc2nccc(-c3c(-c4ccc(F)cc4)ncn3C3CCNCC3)n2)cc1 | SNB-75 CNS | N |
| Cc1ccc(/C=C(\C#N)n2nnc3cc(Cl)c(Cl)cc32)cc1 | SNB-75 CNS | N |
| C=C1CC[C@@H]2C(C)(C)[C@@H](O)CC[C@@]2(C)[C@@H]1COc1ccc2ccc(=O)oc2c1 | SNB-75 CNS | N |
| COc1ccc2c(c1)C(=O)c1c-2n(CCCN=[N+]=[N-])c(=O)c2ccccc12 | SNB-75 CNS | N |
